- System: streptozotocin-induced diabetic rats
- test-method-notes: Sucrose-challenged streptozotocin-induced diabetic rats (STZ-S)
- Assay type: in vivo, rat
- particulars: 100 mg/kg oral, 5 h
Marks after values point to notes of the source that are not given here.
quantity-measured: % Fall in blood glucose levels, STZ-S 5 h

| compound | result |
| --- | --- |
| CC(C)(C)NCC(O)COc1ccc2c(=O)cc(-c3cc(OCc4ccccc4)cc(OCc4ccccc4)c3)oc2c1 (stereo not drawn) [Compound 34] | 21.6** % |
| COc1ccc(-c2cc(=O)c3ccc(OCCCOc4ccc(C=C5SC(=O)NC5=O)cc4)cc3o2)cc1OC [Compound 67] | 18.7% |
| O=c1cc(-c2cc(OCc3ccccc3)cc(OCc3ccccc3)c2)oc2cc(OCC(O)CN3CCN(c4ccccc4)CC3)ccc12 (stereo not drawn) [Compound 36] | NIL |

====

- Test system: triton WR-1339 induced hyperlipidemic rats
- test-method-notes: Triton model, antidyslipidemic activity
- Type: in vivo, rat
- particulars: Rattus norvegicus; 100 mg/kg oral, phospholipid, plasma after 18 h; read-out: % Fall in lipid levels (Triton model) PL
Give Criterion met when the value for inhibition in vivo at 100 mg/kg is at least 20%. Give Criterion not met when it is less.

| molecule | class |
| --- | --- |
| CC(C)NCC(O)COc1ccc2c(=O)cc(-c3cc(O)cc(O)c3)oc2c1 (stereo not shown) | Criterion met |
| O=c1cc(-c2cc(OCc3ccccc3)cc(OCc3ccccc3)c2)oc2cc(OCC(O)CN3CCN(c4ccccc4)CC3)ccc12 (stereo not shown) | Criterion met |
| CC(C)(C)NCC(O)COc1ccc2c(=O)cc(-c3ccc(O)c(O)c3)oc2c1 (stereo not shown) | Criterion met |
| COc1cc(-c2cc(=O)c3ccc(OCC(O)CNC(C)(C)C)cc3o2)cc(OC)c1OC (stereo not shown) | Criterion met |
| CC(C)(C)NCC(O)COc1ccc2oc(-c3ccc(OCc4ccccc4)c(OCc4ccccc4)c3)cc(=O)c2c1 (stereo not shown) | Criterion not met |
| COc1cc(-c2cc(=O)c3ccc(OCC(O)CN4CCN(c5ccccc5)CC4)cc3o2)cc(OC)c1OC (stereo not shown) | Criterion not met |
